- Tested on: LnCap cells
- Method: In vitro cytotoxicity, sulforhodamine B assay, LnCap
- Type: cell-based
- Protocol Conditions: Homo sapiens, hormone-sensitive prostate cancer cells, 72 h, SRB
Measure Name: pIC50
Please note pIC50 is a logarithmic value: minus log10 of concentration in mol/L. Answer with that number alone.

Q: Fill in the blank: the reported pIC50 of OC(Cn1ccnc1)c1cccc(Br)c1 (stereo not shown) [Compound 1] is ____.
A: 3.80

----------
- Study System: HO-1 (Rattus norvegicus, UniProt P06762)
- Sequence (P06762 1-289): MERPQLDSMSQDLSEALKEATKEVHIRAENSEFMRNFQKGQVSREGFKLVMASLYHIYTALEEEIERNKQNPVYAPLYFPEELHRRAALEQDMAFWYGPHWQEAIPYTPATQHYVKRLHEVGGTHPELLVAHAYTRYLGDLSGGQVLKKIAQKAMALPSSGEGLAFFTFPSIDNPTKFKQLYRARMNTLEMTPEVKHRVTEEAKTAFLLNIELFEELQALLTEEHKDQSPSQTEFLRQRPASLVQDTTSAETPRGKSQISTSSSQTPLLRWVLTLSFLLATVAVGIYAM
Provide the reported IC50 of each item.
Give the quantity in µM, number only.

Q: Fill in the blank: the reported IC50 of OC(Cn1ccnc1)C12CC3CC(CC(C3)C1)C2 (stereo not drawn) is ____.
A: 67.6

Q: # iterate: Brc1cccc(C(Cn2ccnc2)OCc2ccccc2)c1 (stereo not drawn)
A: 80

Q: # iterate: `O=C(Cn1ccnc1)NC(c1ccccc1)c1ccccc1`
A: 28.8
